# System: L1210 leukemia
# Assay name: L1210 leukemia cell proliferation inhibition (Table 1, procedure of Li et al.)
# Assay type: cell-based, mouse
# Measurement context: drug concentration required to inhibit cell proliferation to 50% of untreated control cells
Recorded L1210 (IC50 μg/ml), one value per entry.
I only need the number, in µg/mL, no unit after it.

Molecule	Experimental result
CC(=O)O[C@H]1C(=O)[C@@]2(C)C(F)C[C@H]3OC[C@@]3(OC(C)=O)[C@H]2[C@H](OC(=O)c2ccccc2)[C@]2(O)C[C@H](OC(=O)[C@H](O)[C@@H](NC(=O)NC(C)(C)C)c3ccccc3)C(C)=C1C2(C)C (some centres unmarked)	0.0055
CC(=O)OC1C(=O)C2(C)C(F)CC3OCC3(OC(C)=O)C2C(OC(=O)c2ccccc2)C2(O)CC(OC(=O)C(O)C(NC(=O)OC(C)(C)C)c3ccccc3)C(C)=C1C2(C)C (centres unmarked)	0.0038
CC(=O)O[C@H]1C(=O)[C@]23C[C@H]2C[C@H]2OC[C@@]2(OC(C)=O)[C@H]3[C@H](OC(=O)c2ccccc2)[C@]2(O)C[C@H](OC(=O)[C@H](O)[C@@H](NC(=O)OC(C)(C)C)c3ccccc3)C(C)=C1C2(C)C	0.0046

Can you look up the measured L1210 (IC50 μg/ml) of CC(=O)O[C@H]1C(=O)[C@@]23CC2C[C@H]2OC[C@@]2(OC(C)=O)[C@H]3[C@H](OC(=O)c2ccccc2)[C@]2(O)C[C@H](OC(=O)[C@H](O)[C@@H](NC(=O)NC(C)(C)C)c3ccccc3)C(C)=C1C2(C)C (some centres unmarked) for me? 0.006

State the recorded L1210 (IC50 μg/ml) for this entry: CC(=O)OC1C(=O)C23CC2CC2OCC2(OC(C)=O)C3C(OC(=O)c2ccccc2)C2(O)CC(OC(=O)C(O)C(NC(=O)c3ccccc3)c3ccccc3)C(C)=C1C2(C)C (centres unmarked) 0.012

====

# System: L1210 leukemia
# Assay name: L1210 leukemia cell proliferation inhibition (Table 1, procedure of Li et al.)
# Format: cell-based, mouse
# Measurement context: drug concentration required to inhibit cell proliferation to 50% of untreated control cells
Measured metric: L1210 (IC50 μg/ml) (µg/mL)
Unit µg/mL implied. Number only.

Compound	Experimental result
CC(=O)OC1C(=O)C2(C)C(F)CC3OCC3(OC(C)=O)C2C(OC(=O)c2ccccc2)C2(O)CC(OC(=O)C(OC(=O)OCC(Cl)(Cl)Cl)C(NC(=O)c3ccccc3)c3ccccc3)C(C)=C1C2(C)C (stereo not shown) [Compound 13AA]	0.054
CC(=O)O[C@H]1C(=O)[C@@]2(C)[C@H]([C@H](OC(=O)c3ccccc3)[C@]3(O)C[C@H](OC(=O)[C@H](O)[C@@H](NC(=O)c4ccccc4)c4ccccc4)C(C)=C1C3(C)C)[C@]1(OC(C)=O)CO[C@@H]1C[C@@H]2O	0.015

Field: next compound
Please look up its L1210 (IC50 μg/ml): CC(=O)O[C@H]1C(=O)[C@]2(C)C(F)C[C@H]3OC[C@@]3(OC(C)=O)[C@H]2[C@H](OC(=O)c2ccccc2)[C@]2(O)C[C@H](OC(=O)[C@H](OC(=O)OCC(Cl)(Cl)Cl)[C@@H](NC(=O)OC(C)(C)C)c3ccccc3)C(C)=C1C2(C)C (stereo partly shown) [Compound 13DA] 0.015
